- Test system: Streptococcus salivarius
- measurementNotes: growth AUC relative to DMSO control (median of replicates) (fraction); higher = more growth (less inhibition), active = hit call of the paper
- testContext: 20 µM; 24 h
observable: growth AUC
Write the value as a bare number.

Entry under test: "Nc1nc(N)[nH]c(=O)n1" . Its growth AUC was 1

Entry under test: "CCCCOC(=O)[C@@H](C)Oc1ccc(Oc2ccc(C#N)cc2F)cc1" . Its growth AUC was 0.954

Entry under test: "CCS(=O)(=O)Oc1ccc2c(c1)C(C)(C)CO2" . Its growth AUC was 1.03

Entry under test: "CCOP(=O)(OCC)OP(=O)(OCC)OCC" . Its growth AUC was 1.03

Entry under test: CCOc1cc(C(C)(C)C)ccc1C1COC(c2c(F)cccc2F)=N1 (stereo unspecified) . Its growth AUC was 1.02

Entry under test: "O=C(O)C(F)(F)C(F)(F)C(F)(F)C(F)(F)C(F)(F)C(F)(F)F" . Its growth AUC was 1.02

---

- Tested on: Roseburia intestinalis
- measurementNotes: growth AUC relative to DMSO control (median of replicates) (fraction); higher = more growth (less inhibition), active = hit call of the paper;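 active = AUC reduced over 20% with Padj below 0.05 in at least 2 of 3 replicates; inactive = otherwise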
- testContext: 20 µM; 24 h
Please reply with one of these outcomes: active, inactive

Record request — test call for "COP(=O)(OC)O/C(=C/Br)c1ccc(Cl)cc1Cl"
inactive

Record request — test call for "COC(=O)c1ccccc1CS(=O)(=O)NC(=O)Nc1nc(OC)cc(OC)n1"
inactive

Record request — test call for CCOP(=O)(N=C1SCC(C)S1)OCC (stereo not given)
inactive

Record request — test call for "Nc1cc(Cl)ccc1Cl"
inactive

Record request — test call for "COc1cc(C)c(C(=O)c2c(OC)ccc(Br)c2C)c(OC)c1OC"
inactive

Record request — test call for C#CCOS(=O)OC1CCCCC1Oc1ccc(C(C)(C)C)cc1 (mixture of isomers)
inactive

Record request — test call for "Nc1c(Cl)c(F)nc(OCC(=O)O)c1Cl"
inactive

Record request — test call for "COC[C@H](C)N(C(=O)CCl)c1c(C)csc1C"
inactive

Record request — test call for "CCOP(=S)(OCC)Oc1ccc([N+](=O)[O-])cc1"
inactive

Record request — test call for "CC[C@H](C)[C@H]1O[C@]2(C=C[C@@H]1C)C[C@@H]1C[C@@H](C/C=C(\C)[C@@H](O[C@H]3C[C@H](OC)[C@@H](O[C@H]4C[C@H](OC)[C@@H](NC)[C@H](C)O4)[C@H](C)O3)[C@@H](C)/C=C/C=C3\CO[C@@H]4[C@H](O)C(C)=C[C@@H](C(=O)O1)[C@]34O)O2.O=C(O)c1ccccc1"
active

Record request — test call for "COc1ccc(C(c2ccc(OC)cc2)C(Cl)(Cl)Cl)cc1"
inactive

Record request — test call for CC(Oc1ccc(Oc2nc3ccc(Cl)cc3o2)cc1)C(=O)O (racemic)
inactive

Record request — test call for "Cc1cc(C2CC2)nc(Nc2ccccc2)n1"
inactive

Record request — test call for CC(C)(C)C(=O)C(Oc1ccc(Cl)cc1)n1cncn1 (stereo not given)
inactive

Record request — test call for "CCS(=O)(=O)c1cccnc1S(=O)(=O)NC(=O)Nc1nc(OC)cc(OC)n1"
inactive

Record request — test call for "N#Cc1nn(-c2c(Cl)cc(C(F)(F)F)cc2Cl)c(N)c1C(F)(F)F"
active

Record request — test call for "C[Si](Cn1cncn1)(c1ccc(F)cc1)c1ccc(F)cc1"
inactive

Record request — test call for "CCc1cccc(CC)c1N(COC)C(=O)CCl"
inactive

Record request — test call for "C[n+]1ccc(-c2cc[n+](C)cc2)cc1.O.[Cl-].[Cl-]"
inactive

Record request — test call for "COc1ccc(-c2ccccc2)cc1NNC(=O)OC(C)C"
inactive
